Provenance of the data: patent EP0840781B1

System: HIV-1
MEASUREMENT PARAMETERS: 16 µM; 1 Minute Irradiation; HIV Starting Titer Approximately 5 Logs (Table 10)
Kindly return true (1) if reported HIV Log Kill is no lower than 1; return false (0) if it is lower.

Reference set (5 entries):
Cc1oc2c(C)c3oc(=O)cc(C)c3cc2c1CNCCCCN; true (1)
Cc1oc2c(C)c3oc(=O)cc(C)c3cc2c1COCCOCCN; false (0)
Cc1oc2c(C)c3oc(=O)cc(C)c3cc2c1CNCCCN; false (0)
Cc1oc2c(C)c3oc(=O)cc(C)c3cc2c1COCCOCCNCCCCN; true (1)
Cc1oc2c(C)c3oc(=O)cc(C)c3cc2c1COCCN; true (1)

Here is the next item to consider.
Say whether Cc1oc2c(C)c3oc(=O)cc(C)c3cc2c1CN [AMT, 4'-Aminomethyl-4,5',8-trimethylpsoralen, reference compound] shows HIV Log Kill of 1 or more.
true (1)

----------
Tested on: HIV-1
MEASUREMENT PARAMETERS: 32 µM; 1 Minute Irradiation; HIV Starting Titer Approximately 5.4 Logs (Table 11)
RECORDED ENDPOINT: HIV Log Kill
Number only, no unit.

These solved cases illustrate the format of a correct answer.
Cc1oc2c(C)c3oc(=O)cc(C)c3cc2c1CNCCCNCCCN; 0.8
Cc1cc(=O)oc2c(C)c3oc(COCCN)c(C)c3cc12; 1.0
Cc1cc(=O)oc2c(C)c3oc(CNCCCCN)c(C)c3cc12; 2.9
Cc1oc2c(C)c3oc(=O)cc(C)c3cc2c1CNCCCOCCCCOCCN; 1.4

Would you mind telling me what HIV Log Kill value was observed for Cc1oc2c(C)c3oc(=O)cc(C)c3cc2c1CNCCCCN ?
3.2

----------
Reported revertant colonies, TA100 +S9 values follow for various molecules
System: Salmonella typhimurium tester strains TA97a, TA98, TA100, TA102, TA1537 and TA1538
MEASUREMENT PARAMETERS: 5 µg/plate
Number only, no unit.

Cc1oc2c(C)c3oc(=O)cc(C)c3cc2c1CCN; -19
Cc1oc2c(C)c3oc(=O)cc(C)c3cc2c1COCCN; -18
Cc1oc2c(C)c3oc(=O)cc(C)c3cc2c1COCCCN; -10
Cc1oc2c(C)c3oc(=O)cc(C)c3cc2c1CN [AMT, 4'-Aminomethyl-4,5',8-trimethylpsoralen, reference compound]; -6

Turning to the following molecule.
Would you mind telling me what revertant colonies, TA100 +S9 value was observed for Cc1oc2c(C)c3oc(=O)cc(C)c3cc2c1CNCCN ?
-24

----------
System: Salmonella typhimurium tester strains TA97a, TA98, TA100, TA102, TA1537 and TA1538
MEASUREMENT PARAMETERS: 10 µg/plate
RECORDED ENDPOINT: revertant colonies, TA1537 -S9
Number only, no unit.

Cc1oc2c(C)c3oc(=O)cc(C)c3cc2c1COCCN; 36

Would you mind telling me what revertant colonies, TA1537 -S9 value was observed for Nc1c2ccccc2nc2ccccc12 [9-Amino-acridine, reference compound] ?
284

Would you mind telling me what revertant colonies, TA1537 -S9 value was observed for Cc1oc2c(C)c3oc(=O)cc(C)c3cc2c1CNCCCCN ?
141

Would you mind telling me what revertant colonies, TA1537 -S9 value was observed for Cc1oc2c(C)c3oc(=O)cc(C)c3cc2c1CN [AMT, 4'-Aminomethyl-4,5',8-trimethylpsoralen, reference compound] ?
52
